- System: SW-620 colon
- TEST PROTOCOL: NCI-60 one-dose screen, 48 h (100 = growth as untreated, 0 = no growth, -100 = all killed)
- EXPERIMENTAL CONDITIONS: 10 µM unless noted
Compounds without any hit were thinned out: in the full panel of roughly 83,000, 20% have a hit.
Measured growth of individual entries
ASSAY ENDPOINT: growth (%)

INSERT INTO assay_data (compound, endpoint_value) VALUES
  ('Cc1ccc(Cn2c(-c3nonc3N)nc3ccccc32)cc1', 28.4),
  ('COc1cccc(-c2nc3sccn3c2-c2ccnc(NCCCNS(=O)(=O)c3ccccc3)n2)c1', 75.1),
  ('c1cc(-c2ccc3c(c2)OCO3)n2nccc2n1', 105),
  ('Cc1ccc(Cn2c(-c3cccs3)nc3ccccc32)cc1', 81.2),
  ('COc1ccc(NC(=O)CSc2nc3ccc(Cl)cc3c(=O)n2-c2ccccc2C(F)(F)F)c(OC)c1OC', 94),
  ('C=CCN=C1NC(=O)/C(=C/c2cc(C(C)(C)C)c(O)c(C(C)(C)C)c2)S1', 63.5),
  ('CCN(Cc1ccc(CN(CC)C(=O)C(Br)Br)cc1)C(=O)C(Br)Br', 21.6),
  ('COc1ccc(/C=C2\CCCC3=C2NC(C)=NC3c2ccc(OC)c(OC)c2)cc1OC (centres undefined)', -28.8),
  ('COc1ccc(/C=C/c2nc(N3CCOCC3)c3cc(F)c(F)cc3n2)cc1OC', 55.5),
  ('NC(C(=O)O)C(O)c1ccc(OCc2ccccc2)c(OCc2ccccc2)c1 (centres undefined)', 97),
  ('Cc1cccc(NC(=O)c2sc3nc4c(cc3c2N)CCC4)c1C', 28.6),
  ('C=C1C(=O)O[C@H]2[C@H]1CC/C(Cn1cc(-c3ccccc3C(F)(F)F)nn1)=C\CC[C@@]1(C)O[C@@H]21', -62.9),
  ('CN=S(=O)(NC(=O)c1ccc(Cl)cc1Cl)c1ccc(Br)s1 (centres undefined)', 98.8),
  ('Cc1ccccc1C(=O)c1ccccc1C(=O)O', 102),
  ('COc1cc(C2C=C(C)N=C3SC=C(C)N32)cc(OC)c1OC (centres undefined)', -44.5),
  ('O=C(CCCn1c(=O)c2sc3ccccc3c2n2nnc(-c3ccccc3)c12)NCCc1cnc[nH]1', -11.1),
  ('CC1Cc2c(N(C)C)ncnc2N(C)c2ccc(Cl)cc21 (centres undefined)', 17.9),
  ('CCCC(C(=O)OCC)C(C)OC(=O)OCC (centres undefined)', 113),
  ('CC(C)N(Cc1ccc(CN(C(=O)CCl)C(C)C)cc1)C(=O)CCl', 2.78),
  ('CC[C@]1(O)C[C@@H]2CN(Cc3c([nH]c4ccccc34)[C@@](C(=O)OC)(c3cc4c(cc3OC)N(C)[C@H]3[C@@](O)(C(=O)OC)[C@H](OC(C)=O)[C@]5(CC)[C@@H]6C[C@@H]6CN6CC[C@]43[C@@H]65)C2)C1', 20.6),
  ('COc1cc2nc(SCc3cc(OC)c(OC)c(OC)c3)n(Cc3ccccc3)c(=O)c2cc1OC', 33.5),
  ('O=C1N=C(c2c(-c3[nH]c(=O)c4ccc(Br)cc4c3O)c(O)c3ccccc3c2O)C(=O)c2cc(Br)ccc21', -70.7),
  ('CCCCCC(=O)OCc1ccccc1', 98.1),
  ('COc1ccc(C(=O)N2CCN(C(=O)c3cc(OC)c(OC)c(OC)c3)CC2)cc1OCCCCOc1cc2c(cc1OC)C(=O)N1CCC[C@H]1C=N2', 110),
  ('O=C(O)C(Cc1ccccc1)N1C(=O)/C(=C/C(Cl)=C/c2ccc([N+](=O)[O-])cc2)SC1=S (centres undefined)', 5.12),
  ('Cc1sc2nc(CSc3nnc(-c4ccco4)o3)[nH]c(=O)c2c1C', 101),
  ('Cc1nc(Nc2cccnc2)sc1C(=O)/C=C/c1ccc(F)cc1', 9.84),
  ('Cc1oc2nc[nH]c(=O)c2c1C(=O)/C=C/c1ccc(Cl)cc1Cl', 31.2),
  ('O=S(=O)(NCCNc1nccc(-c2c(-c3ccccc3)nc3sccn23)n1)c1ccc(O)cc1', 30),
  ('NC(=O)c1ccc2c(c1)OCO2', 98),
  ('OC1CC2c3ccccc3C1c1ccccc12 (centres undefined)', 108),
  ('COc1cc(OC)cc(-c2n[nH]nc2-c2ccc3c(c2)OCO3)c1', 30.8),
  ('COc1cc(NCCCN=C(N)NC(N)=NC(C)C)c2ncccc2c1', 86.6),
  ('CCN1C(=O)N[C@H]2[C@@H]3NC(=O)c4ccc(Cl)n4[C@@H]3C[C@]21O', 3.96);

The values you see were collected from PubChem BioAssay (NCI).
